Target: T1, recombinant human IL-23 (human, UniProt P29460 23-328)
T1 construct: also called Human recombinant IL-23
T1 sequence 1: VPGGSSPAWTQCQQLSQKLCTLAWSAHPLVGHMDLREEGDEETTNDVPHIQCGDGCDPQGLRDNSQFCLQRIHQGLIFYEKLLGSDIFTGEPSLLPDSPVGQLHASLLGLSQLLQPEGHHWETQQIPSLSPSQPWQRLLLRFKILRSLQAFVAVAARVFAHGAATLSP
T1 sequence 2: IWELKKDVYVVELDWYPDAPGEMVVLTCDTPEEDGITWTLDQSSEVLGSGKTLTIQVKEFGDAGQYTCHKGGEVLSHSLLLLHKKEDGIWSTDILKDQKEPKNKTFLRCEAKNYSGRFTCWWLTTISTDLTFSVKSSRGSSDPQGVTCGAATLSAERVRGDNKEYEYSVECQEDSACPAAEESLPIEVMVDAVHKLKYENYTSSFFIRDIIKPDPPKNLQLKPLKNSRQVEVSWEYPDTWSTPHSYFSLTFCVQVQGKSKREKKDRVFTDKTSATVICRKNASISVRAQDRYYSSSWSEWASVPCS
Assay: BLI, Fortebio Octet; hybridoma-derived antibody
reported-property: koff (s⁻¹)
Value expressed in s⁻¹; do not type the unit.

[[record]]
binder = "73H10 (antibody, V domains shown, Mouse monoclonal antibody from hybridoma; also called 73H10Vk; 73H10VH) VH: EVQLQQSGPELVKPGASVKMSCKASGYTFTRYVMHWVKQKPGQGLEWIGYINPYNDVTKYNEKFKGKATLTSDRSSSTAYMKLSSLTSEDSAVYYCARNWDVPYWGQGTLITVSA VL: DIQMTQSPVFLSASVGETVTITCRASENIDSYLAWYQQKQGKSPQLLVFAARNLADGVPSRFSGSGSGTQYSLKINRMQSEDVARYYCQHYYSTPFTFGSGTKLEIE"
quantitative_result = "5.24e-06"


Ask: Report koff for 18E5 (antibody, V domains shown, Mouse monoclonal antibody from hybridoma; also called 18E5vk; 18E5vh) VH: EVQLQQSGPELVKPGAAVKMSCKASGYTFTRYLIHWVKQKPGQGLEWIGYINPYNDGTKYNEKFKGKATLTSDKSSSTAYMELSSLTSEDSAVYYCTSNWDLDYWGQGTTLTVSS VL: DIVMTQSPATLSVTPGDRVSLSCRASQSISDYLYWYQQKSHESPRLLIKFASQSISGIPSRFTGSGSGSDFTLSIDSVEPDDVGVFFCQNGHSFPFTFGGGTKLEIK please.
Result: 2.61e-06

Ask: Which koff is listed for 74H3 (antibody, V domains shown, Mouse monoclonal antibody from hybridoma; also called 74H3Vk; 74H3VH) VH: EVQLQQSGPELVKPGASVKMSCKASGYTFTRYLMHWVKQKPGQGLEWIGYINPYNDGTKYNERFKGKATLTSDKSSSTAYMELSSLTSEDSAVYYCARNWDVPYWGQGTLVTVSA VL: DIQMTQSPASLSASVGETVIFTCRASENIDSYLAWYQQKQGKSPQLLVYAATNLADGVPSRFSGSGSGTQYSLKINSLQSEDVARYYCLHYYSTPFTFGSGTELEIK ?
Result: 2.09e-06

Ask: Return reported koff; argument: 26F7 (antibody, V domains shown, Mouse monoclonal antibody from hybridoma; also called 26F7Vk; 26F7VH) VH: EVQLQQSGPELVKPGASVKISCKASGYTFTDYYMNWVRQSHGESLEWIGDFNHNNDVITYNPKFKGKVTLTVEKSSTTAYMELRSLSSEDSAVYYCARGLRGYYAMDYWGQGTSVTVSS VL: DIVLTQSPASLAVSLGQRATISCRASKSVRFSDYFYMHWYQQKPGQPPKLLIYLASNLESGVPARFSGSGSGTDFTLNIHPVEEEDAATYYCQNSRELPYTFGGGTKLEIK
Result: 1.34e-05
